Target chain: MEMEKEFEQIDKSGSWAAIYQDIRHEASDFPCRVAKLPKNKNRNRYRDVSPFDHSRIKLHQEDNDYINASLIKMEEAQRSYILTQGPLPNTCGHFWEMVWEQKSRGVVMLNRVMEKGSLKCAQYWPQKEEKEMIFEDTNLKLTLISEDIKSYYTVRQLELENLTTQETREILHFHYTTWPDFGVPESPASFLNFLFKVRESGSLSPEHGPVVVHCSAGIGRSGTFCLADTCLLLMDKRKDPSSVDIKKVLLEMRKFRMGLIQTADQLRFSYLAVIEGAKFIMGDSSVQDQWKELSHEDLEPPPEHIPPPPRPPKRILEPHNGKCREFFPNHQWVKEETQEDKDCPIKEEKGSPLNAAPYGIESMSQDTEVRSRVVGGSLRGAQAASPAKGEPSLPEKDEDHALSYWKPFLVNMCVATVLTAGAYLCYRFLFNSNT
pKi: −log10 of the molar value.
Below, each of the molecules is paired with its reported pKi value.
METRIC: pKi

1. Cc1c(N2CC(=O)NS2(=O)=O)csc1-c1cccc(NC2CCN(S(=O)(=O)Cc3ccccc3)CC2)c1 :: 5.37
2. O=C(O)COc1c(-c2nnn[nH]2)sc(Br)c1Br :: 3.57
3. CC(=O)N(c1cccc(-c2sc(-c3nn[nH]n3)c(OCC(=O)O)c2Br)c1)C1CC(C)(C)CC(C)(C)C1 :: 5.34

Reference source: ChEMBL document CHEMBL1139178
